IC50 by entry:
Biological target: Microsomal triglyceride transfer protein large subunit (Homo sapiens, UniProt P55157)
Sequence (P55157 whole entry): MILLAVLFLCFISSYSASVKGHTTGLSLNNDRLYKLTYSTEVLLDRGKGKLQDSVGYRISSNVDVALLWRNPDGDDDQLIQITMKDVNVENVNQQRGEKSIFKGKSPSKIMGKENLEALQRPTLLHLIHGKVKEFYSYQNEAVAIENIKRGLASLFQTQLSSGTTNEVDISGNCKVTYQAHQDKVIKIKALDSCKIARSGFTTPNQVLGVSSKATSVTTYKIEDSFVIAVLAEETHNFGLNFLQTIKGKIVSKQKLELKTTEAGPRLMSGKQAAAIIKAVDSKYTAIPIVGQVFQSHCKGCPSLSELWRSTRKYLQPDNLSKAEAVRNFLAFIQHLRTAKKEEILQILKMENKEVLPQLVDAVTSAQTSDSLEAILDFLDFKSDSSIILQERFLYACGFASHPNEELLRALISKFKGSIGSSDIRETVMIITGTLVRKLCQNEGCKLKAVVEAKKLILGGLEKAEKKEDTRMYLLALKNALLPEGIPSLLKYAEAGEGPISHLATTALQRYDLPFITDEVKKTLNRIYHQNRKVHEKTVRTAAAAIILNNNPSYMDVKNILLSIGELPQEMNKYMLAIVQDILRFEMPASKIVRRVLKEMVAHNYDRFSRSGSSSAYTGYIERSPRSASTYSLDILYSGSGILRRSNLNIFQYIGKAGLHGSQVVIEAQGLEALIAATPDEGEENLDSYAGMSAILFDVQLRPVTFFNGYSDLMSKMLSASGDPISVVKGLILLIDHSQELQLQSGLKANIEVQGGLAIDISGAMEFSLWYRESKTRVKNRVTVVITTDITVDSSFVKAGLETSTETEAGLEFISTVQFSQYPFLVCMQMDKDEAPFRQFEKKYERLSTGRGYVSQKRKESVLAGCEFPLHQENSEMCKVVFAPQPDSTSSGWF
Experiment: In vitro inhibitory activity against MTP using MTP transfer assay
Hi! Could you send only the number? It should be in nM, unit omitted.

Guide cases for IC50, answers given:
INSERT INTO results (compound, meas_value) VALUES
  ('COC(=O)N[C@@H]1Cc2ccc(NC(=O)c3cc(C)cc(C)c3-c3ccc(C(F)(F)F)cc3)cc2C1', 90),
  ('O=C(Nc1ccc2c(c1)CC(NCc1ccccc1)C2)c1ccccc1-c1ccc(C(F)(F)F)cc1 (stereo unspecified)', 4800),
  ('COC(=O)N[C@H]1Cc2ccc(NC(=O)c3ccccc3-c3ccc(C(F)(F)F)cc3)cc2C1', 68),
  ('Cc1cccc(C(=O)Nc2ccc3c(c2)C[C@H](NS(=O)(=O)c2cccs2)C3)c1-c1ccc(C(F)(F)F)cc1', 50),
  ('COc1cccc(C(=O)Nc2ccc3c(c2)CC(NS(C)(=O)=O)C3)c1-c1ccc(Cl)cc1 (stereo unspecified)', 70);

Input: Any idea what its IC50 is? The compound is CN(C)C(=O)NC1Cc2ccc(NC(=O)c3ccccc3-c3ccc(C(F)(F)F)cc3)cc2C1 (stereo unspecified)
Output: 80

Input: Any idea what its IC50 is? The compound is Cc1cccc(C(=O)Nc2ccc3c(c2)CC(CNS(C)(=O)=O)C3)c1-c1ccc(Cl)cc1 (stereo unspecified)
Output: 500
